PROCEDURE TEXT: Linear calculated pharmacokinetic parameters (Table 33)
Assay type: in vivo
CONDITIONS: human, plasma, po, dose 3 mg, read-out: Mean AUC0-168
OBSERVATION TYPE: AUC(0-t) (ng·h/mL)

CN(C)C(=O)N[C@H]1CC[C@H](CCN2CCN(c3cccc(Cl)c3Cl)CC2)CC1 :: 96.8

====

PROCEDURE TEXT: Double-blind placebo controlled single dose pharmacokinetic study of cariprazine capsules in healthy male volunteers (Example 4)
Format: in vivo, human
CONDITIONS: male, human, plasma, oral; mean; single dose 1.5 mg capsules, fasted; Group II Period 2
OBSERVATION TYPE: Cmax (ng/mL)

CN(C)C(=O)N[C@H]1CC[C@H](CCN2CCN(c3cccc(Cl)c3Cl)CC2)CC1 :: 1.19
